Parameter kon: see the listing below.
Biological target: T1, human IL-11Rα (human, UniProt Q14626 23-363, limits assumed)
T1 construct: Protein coated on ELISA plates and used in solution for BLI; also called hIL-11Rα; hIL-11R
T1 sequence: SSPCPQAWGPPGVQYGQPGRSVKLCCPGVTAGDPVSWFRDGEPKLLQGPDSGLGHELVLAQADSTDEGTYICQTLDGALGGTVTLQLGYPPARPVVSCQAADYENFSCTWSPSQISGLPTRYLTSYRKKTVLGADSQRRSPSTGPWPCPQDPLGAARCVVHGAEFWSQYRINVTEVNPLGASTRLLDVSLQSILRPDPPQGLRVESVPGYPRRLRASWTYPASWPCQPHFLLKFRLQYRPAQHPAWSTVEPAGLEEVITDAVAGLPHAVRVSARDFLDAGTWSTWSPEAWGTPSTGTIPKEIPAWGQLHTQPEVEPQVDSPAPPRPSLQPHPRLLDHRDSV
Test: BLI (Octet RED96e), mAb on protein G biosensors, hIL-11Rα in solution
Just the number in M⁻¹ s⁻¹, nothing appended.

Below, 4 binders whose answers are already recorded.
binder	unit-abbrev	kon
mAb15 (antibody, V domains shown, Expressed as human IgG4 (S228P EU)) VH: EVQLLESGGGLVQPGGSLRLSCAASGFTFSWYSMTWVRQAPGKGLEWVSSIVPYGDLTQYADSVKGRFTISRDNSKNTLYLQMNSLRAEDTAVYYCAKGPGWGSFDLWGRGTLVTVSS VL: DIQMTQSPSSLSASVGDRVTITCQASQDINNYLNWYQQKPGKAPKLLIYDASNLQTGVPSRFSGSGSGTDFTFTISSLQPEDIATYYCQQHETQTPTFGPGTKVDIK	M⁻¹ s⁻¹	84000
mAb13 (antibody, V domains shown, Expressed as human IgG4 (S228P EU)) VH: EVQLLESGGGLVQPGGSLRLSCAASGFTFSWYSMTWVRQAPGKGLEWVSSIVPYGDLTQYADSVKGRFTISRDNSKNTLYLQMNSLRAEDTAVYYCAKPEDWGRFDLWGRGTLVTVSS VL: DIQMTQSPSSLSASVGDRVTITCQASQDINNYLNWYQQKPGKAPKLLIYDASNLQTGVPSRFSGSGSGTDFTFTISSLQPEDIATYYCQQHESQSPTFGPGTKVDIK	M⁻¹ s⁻¹	66700
mAb5 (antibody, V domains shown, Expressed as human IgG4 (S228P EU); also called mAb5 IL11RA Ab) VH: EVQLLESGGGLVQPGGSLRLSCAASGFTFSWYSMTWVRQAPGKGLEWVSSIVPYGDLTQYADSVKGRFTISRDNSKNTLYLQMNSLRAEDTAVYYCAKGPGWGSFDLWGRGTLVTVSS VL: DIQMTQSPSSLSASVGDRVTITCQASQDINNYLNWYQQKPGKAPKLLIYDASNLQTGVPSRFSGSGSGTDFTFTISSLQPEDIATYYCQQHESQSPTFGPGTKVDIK	M⁻¹ s⁻¹	63700
mAb6 (antibody, V domains shown, Expressed as human IgG4 (S228P EU)) VH: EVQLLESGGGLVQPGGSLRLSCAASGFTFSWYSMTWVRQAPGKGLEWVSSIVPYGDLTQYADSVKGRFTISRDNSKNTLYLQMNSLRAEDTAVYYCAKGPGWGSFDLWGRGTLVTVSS VL: DIQMTQSPSSLSASVGDRVTITCQASQDINNYLNWYQQKPGKAPKLLIYDASNLQTGVPSRFSGSGSGTDFTFTISSLQPEDIATYYCQQHEFQSPTFGPGTKVDIK	M⁻¹ s⁻¹	800000

Measured kon of mAb14 (antibody, V domains shown, Expressed as human IgG4 (S228P EU)) VH: EVQLLESGGGLVQPGGSLRLSCAASGFTFSWYSMTWVRQAPGKGLEWVSSIVPYGDLTQYAESVKGRFTISRDNSKNTLYLQMNSLRAEDTAVYYCAKGPGWGSFDLWGRGTLVTVSS VL: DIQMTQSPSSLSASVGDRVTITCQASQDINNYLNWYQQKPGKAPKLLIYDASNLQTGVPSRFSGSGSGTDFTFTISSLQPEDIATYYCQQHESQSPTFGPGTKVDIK : 33700

Measured kon of mAb9 (antibody, V domains shown, Expressed as human IgG4 (S228P EU)) VH: EVQLLESGGGLVQPGGSLRLSCAASGFTFSWYSMTWVRQAPGKGLEWVSGIVPYGDLTQYADSVKGRFTISRDNSKNTLYLQMNSLRAEDTAVYYCAKGPGWGSFDLWGRGTLVTVSS VL: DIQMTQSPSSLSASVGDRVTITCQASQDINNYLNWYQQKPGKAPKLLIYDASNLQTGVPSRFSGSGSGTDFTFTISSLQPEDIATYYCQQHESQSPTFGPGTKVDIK : 62200

Measured kon of mAb11 (antibody, V domains shown, Expressed as human IgG4 (S228P EU)) VH: EVQLLESGGGLVQPGGSLRLSCAASGFTFSWYSMTWVRQAPGKGLEWVSSIVDYGDLTQYADSVKGRFTISRDNSKNTLYLQMNSLRAEDTAVYYCAKGPGWGSFDLWGRGTLVTVSS VL: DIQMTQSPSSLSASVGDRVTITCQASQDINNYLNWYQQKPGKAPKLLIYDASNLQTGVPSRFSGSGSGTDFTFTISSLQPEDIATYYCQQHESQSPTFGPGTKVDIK : 32900
